assay_name: The drug is tested on WLS-350 corresponding to human gut metagenome with ENA study accession number: PRJEB37062 and ENA sample accession number: ERS12561789 for biotransformation under anaerobic condition. The drug concentrations were measured over 9 timepoints collected between 0 and 24 hours of incubation by liquid-chromatography-coupled mass spectrometry (LC–MS); further: call rule not given here
experimental_parameters: 2 µM
assay_endpoint: Bacterial Biotransformation

Sample answers from the record:
Cc1nc(Nc2ncc(C(=O)Nc3c(C)cccc3Cl)s2)cc(N2CCN(CCO)CC2)n1 [DASATINIB ANHYDROUS] : Compound NOT metabolized
CCOC(=O)[C@H](CCc1ccccc1)N[C@@H](C)C(=O)N1CCC[C@H]1C(=O)O.O=C(O)/C=C\C(=O)O [ENALAPRIL MALEATE] : Compound NOT metabolized
CCN(C(C)=O)c1cccc(-c2ccnc3c(C#N)cnn23)c1 [ZALEPLON] : Compound metabolized
O=C(O)c1cc(/N=N/c2ccc(S(=O)(=O)Nc3ccccn3)cc2)ccc1O [SULFASALAZINE] : Compound metabolized
COC(=O)C(c1ccccc1)C1CCCCN1 (stereo not given) [METHYLPHENIDATE] : Compound NOT metabolized

Okay, here is my list. What is Bacterial Biotransformation for each of these?
1. OC(c1cc(C(F)(F)F)nc2c(C(F)(F)F)cccc12)C1CCCCN1 (stereo not given) [MEFLOQUINE]
2. O=C1C(CC[S+]([O-])c2ccccc2)C(=O)N(c2ccccc2)N1c1ccccc1 (stereo not given) [SULFINPYRAZONE]
3. CCOc1ccc2nc(S(N)(=O)=O)sc2c1 [ETHOXZOLAMIDE]

Compound NOT metabolized
Compound metabolized
Compound NOT metabolized

State recorded Bacterial Biotransformation for all listed compounds.
1. Clc1cccc(Cl)c1N=C1NCCN1 [CLONIDINE]
2. CCCCC(=O)O[C@]1(C(=O)CO)[C@@H](C)C[C@H]2[C@@H]3CCC4=CC(=O)C=C[C@]4(C)[C@@]3(F)[C@@H](O)C[C@@]21C [BETAMETHASONE VALERATE]
3. CCCN(CCC)CCc1cccc2c1CC(=O)N2 [ROPINIROLE]
4. O=C1CC2(CCCC2)CC(=O)N1CCCCN1CCN(c2ncccn2)CC1 [BUSPIRONE]
5. C#C[C@]1(OC(C)=O)CC[C@H]2[C@@H]3CCC4=C[C@@H](OC(C)=O)CC[C@@H]4[C@H]3CC[C@@]21C [ETHYNODIOL DIACETATE]
6. CCN1CCCC1CNC(=O)c1cc(S(=O)(=O)CC)c(N)cc1OC (stereo not given) [AMISULPRIDE]
7. CCOC(=O)[C@H](CCc1ccccc1)N[C@@H](C)C(=O)N1Cc2ccccc2C[C@H]1C(=O)O
8. O=C([O-])C[C@H](O)C[C@H](O)/C=C/c1c(C2CC2)nc2ccccc2c1-c1ccc(F)cc1.O=C([O-])C[C@H](O)C[C@H](O)/C=C/c1c(C2CC2)nc2ccccc2c1-c1ccc(F)cc1.[Ca+2] [PITAVASTATIN CALCIUM]

1: Compound NOT metabolized; 2: Compound NOT metabolized; 3: Compound NOT metabolized; 4: Compound metabolized; 5: Compound metabolized; 6: Compound NOT metabolized; 7: Compound NOT metabolized; 8: Compound NOT metabolized

* * *

experimental_parameters: human gut metagenome, 24 h, 2 µM
assay_endpoint: Bacterial Biotransformation

Record excerpt, results attached:
O=P1(N(CCCl)CCCl)NCCCO1 (stereo not given) [CYCLOPHOSPHAMIDE ANHYDROUS] : Compound metabolized
CN(C)CCOC(C)(c1ccccc1)c1ccccn1.O=C(O)CCC(=O)O (stereo not given) [DOXYLAMINE SUCCINATE] : Compound NOT metabolized
Nc1nc(NC2CC2)c2ncn([C@H]3C=C[C@@H](CO)C3)c2n1.Nc1nc(NC2CC2)c2ncn([C@H]3C=C[C@@H](CO)C3)c2n1.O=S(=O)(O)O [ABACAVIR SULFATE] : Compound metabolized
CN(CCOc1ccc(CC2SC(=O)NC2=O)cc1)c1ccccn1.O=C(O)/C=C\C(=O)O (stereo not given) [ROSIGLITAZONE MALEATE] : Compound metabolized
CC(=O)O[C@]1(C(C)=O)CC[C@H]2[C@@H]3C=C(C)C4=CC(=O)CC[C@]4(C)[C@H]3CC[C@@]21C [MEGESTROL ACETATE] : Compound metabolized

Quick request: Bacterial Biotransformation for each listed item, please.
1. COc1ccc(C(CN(C)C)C2(O)CCCCC2)cc1 (stereo not given)
2. Clc1cccc(Cl)c1N=C1NCCN1
3. CCOc1cc(CC(=O)N[C@@H](CC(C)C)c2ccccc2N2CCCCC2)ccc1C(=O)O [REPAGLINIDE]

["Compound NOT metabolized", "Compound metabolized", "Compound metabolized"]

Provide Bacterial Biotransformation for all items below, preserving their order.
1. CC#CCn1c(N2CCC[C@@H](N)C2)nc2c1c(=O)n(Cc1nc(C)c3ccccc3n1)c(=O)n2C
2. CC#C[C@]1(O)CC[C@H]2[C@@H]3CCC4=CC(=O)CCC4=C3[C@@H](c3ccc(N(C)C)cc3)C[C@@]21C
3. Br.CN1CCC[C@@H]1Cc1c[nH]c2ccc(CCS(=O)(=O)c3ccccc3)cc12 [ELETRIPTAN HYDROBROMIDE]

1: Compound NOT metabolized; 2: Compound metabolized; 3: Compound metabolized
